All values here come from paper PMC8119466.

# study-target: recombinant PRL-1 (Homo sapiens, UniProt Q93096)
# Construct: 6xHis (N, cleaved yes); made in house; host or cells: E. coli One Shot BL21 Star
# protocol-summary: In vitro phosphatase assay (DiFMUP hydrolysis), PRL-1; further: test concentration or dose not given here
# Assay type: biochemical
# protocol-conditions: FDA-approved drug screen; compared to DMSO
Where a name gives a salt, the structure may show the parent alone.
measurement-name: % Phosphatase Activity (compared to DMSO) PRL-1 (%)
The figure you give is taken to be in %; do not add the unit.

O=C(NC[C@H]1CN(c2ccc(N3CCOCC3=O)cc2)C(=O)O1)c1ccc(Cl)s1	98

Prompt: Lookup: % Phosphatase Activity (compared to DMSO) PRL-1 / recombinant PRL-1 (Homo sapiens, UniProt Q93096) / "O=c1[nH]c(=O)n([C@H]2C[C@H](O)[C@@H](CO)O2)cc1F"
Response: 93

Prompt: Lookup: % Phosphatase Activity (compared to DMSO) PRL-1 / recombinant PRL-1 (Homo sapiens, UniProt Q93096) / O=C1CC[C@@]2(O)[C@H]3Cc4ccc(O)c5c4[C@@]2(CCN3CC2CC2)[C@H]1O5 [Naltrexone HCl]
Response: 100

----------
# study-target: recombinant PRL-2 (Homo sapiens)
# Construct: 6xHis (N, cleaved yes); made in house; host or cells: E. coli One Shot BL21 Star
# Sequence (Q12974 1-167): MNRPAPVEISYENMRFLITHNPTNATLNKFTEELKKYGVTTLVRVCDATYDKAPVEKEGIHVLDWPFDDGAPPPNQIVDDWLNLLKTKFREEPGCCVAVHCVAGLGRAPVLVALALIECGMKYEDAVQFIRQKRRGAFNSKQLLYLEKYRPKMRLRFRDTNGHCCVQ
# protocol-summary: In vitro phosphatase assay (DiFMUP hydrolysis), PRL-2;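 further: PRL-2 activity read as DiFMUP hydrolysis after 20 min at room temperature with drug, enzyme first pre-reduced at 4 °C for 20 min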
# Type: biochemical
# protocol-conditions: FDA-approved drug screen; compared to DMSO
Counter-ions that a name gives are not always drawn.
Reported % Phosphatase Activity (compared to DMSO) PRL-2 values for a set of compounds
The figure you give is taken to be in %; do not add the unit.

Prompt: Reported % Phosphatase Activity (compared to DMSO) PRL-2, compound CCc1cc2c(cc1CC)CC(NC[C@H](O)c1ccc(O)c3[nH]c(=O)ccc13)C2 [Indacaterol Maleate] : ____
Response: 100

Prompt: Reported % Phosphatase Activity (compared to DMSO) PRL-2, compound "CCC[C@H](N[C@@H](C)C(=O)N1[C@H](C(=O)O)C[C@@H]2CCCC[C@@H]21)C(=O)OCC" : ____
Response: 84

Prompt: Reported % Phosphatase Activity (compared to DMSO) PRL-2, compound CCCCc1oc2ccc(NS(C)(=O)=O)cc2c1C(=O)c1ccc(OCCCN(CCCC)CCCC)cc1 [Dronedarone HCl] : ____
Response: 131

Prompt: Reported % Phosphatase Activity (compared to DMSO) PRL-2, compound COc1cc2nccc(Oc3ccc(NC(=O)NC4CC4)c(Cl)c3)c2cc1C(N)=O [Lenvatinib (E7080)] : ____
Response: 85

Prompt: Reported % Phosphatase Activity (compared to DMSO) PRL-2, compound "O=C(Nc1c(Cl)cncc1Cl)c1ccc(OC(F)F)c(OCC2CC2)c1" : ____
Response: 101

Prompt: Reported % Phosphatase Activity (compared to DMSO) PRL-2, compound CCc1ccc(CCOc2ccc(CC3SC(=O)NC3=O)cc2)nc1 (centres unmarked) [Pioglitazone] : ____
Response: 105

Prompt: Reported % Phosphatase Activity (compared to DMSO) PRL-2, compound COc1ccccc1OCC(O)CN1CCN(CC(=O)Nc2c(C)cccc2C)CC1 (centres unmarked) : ____
Response: 99

Prompt: Reported % Phosphatase Activity (compared to DMSO) PRL-2, compound "O=c1[nH]c2ccccc2n1CCCN1CCC(n2c(=O)[nH]c3cc(Cl)ccc32)CC1" : ____
Response: 112

Prompt: Reported % Phosphatase Activity (compared to DMSO) PRL-2, compound CC1Cc2ccccc2N1NC(=O)c1ccc(Cl)c(S(N)(=O)=O)c1 (centres unmarked) [Indapamide] : ____
Response: 105

Prompt: Reported % Phosphatase Activity (compared to DMSO) PRL-2, compound CCC[C@@H]1C[C@@H](C(=O)N[C@@H]([C@H]2O[C@H](SC)[C@H](OP(=O)(O)O)[C@@H](O)[C@H]2O)[C@H](C)Cl)N(C)C1 [Clindamycin Phosphate] : ____
Response: 76

Prompt: Reported % Phosphatase Activity (compared to DMSO) PRL-2, compound "Nc1nc(F)nc2c1ncn2[C@@H]1O[C@H](CO)[C@@H](O)[C@@H]1O" : ____
Response: 119

Prompt: Reported % Phosphatase Activity (compared to DMSO) PRL-2, compound "CN1C(C(=O)Nc2ccccn2)=C(O)c2ccccc2S1(=O)=O" : ____
Response: 76

Prompt: Reported % Phosphatase Activity (compared to DMSO) PRL-2, compound COc1ccc(C(=O)c2ccccc2O)c(O)c1 [2,2′-Dihydroxy-4-methoxybenzophenone] : ____
Response: 107

Prompt: Reported % Phosphatase Activity (compared to DMSO) PRL-2, compound "CC(C)(C#N)c1cc(Cn2cncn2)cc(C(C)(C)C#N)c1" : ____
Response: 122

Prompt: Reported % Phosphatase Activity (compared to DMSO) PRL-2, compound "CN(C)CC/C=C1/c2ccccc2Sc2ccc(Cl)cc21" : ____
Response: 107

Prompt: Reported % Phosphatase Activity (compared to DMSO) PRL-2, compound "O=C(/C=C\n1cnc(-c2cc(C(F)(F)F)cc(C(F)(F)F)c2)n1)NNc1cnccn1" : ____
Response: 69

Prompt: Reported % Phosphatase Activity (compared to DMSO) PRL-2, compound CC(=O)O[C@]1(C(C)=O)CC[C@H]2[C@@H]3C[C@H](C)C4=CC(=O)C=C[C@]4(C)[C@@]3(F)[C@@H](O)C[C@@]21C [Fluorometholone Acetate] : ____
Response: 96

----------
# study-target: recombinant PRL-1 (Homo sapiens)
# Construct: 6xHis (N, cleaved yes); made in house; host or cells: E. coli One Shot BL21 Star
# protocol-summary: In vitro phosphatase assay (DiFMUP hydrolysis), PRL-1; further: test concentration or dose not given here
# Assay type: biochemical
# protocol-conditions: FDA-approved drug screen; compared to DMSO
Reported % Phosphatase Activity (compared to DMSO) PRL-1 values for a set of compounds
The figure you give is taken to be in %; do not add the unit.

CCC(=O)O[C@]1(C(=O)CCl)[C@@H](C)C[C@H]2[C@@H]3C[C@H](F)C4=CC(=O)C=C[C@]4(C)[C@@]3(F)[C@@H](O)C[C@@]21C [Halobetasol Propionate]	88
C[C@]12C=CC(=O)C=C1CC[C@@H]1[C@@H]2[C@@H](O)C[C@@]2(C)[C@H]1CC[C@]2(O)C(=O)CO	89
O=C1CCc2cc(OCCCCc3nnnn3C3CCCCC3)ccc2N1	88
O=C(O)c1cc(-c2ccc(F)cc2F)ccc1O	91

Next compound, % Phosphatase Activity (compared to DMSO) PRL-1 to be filled in.
Prompt: Reported % Phosphatase Activity (compared to DMSO) PRL-1, compound COc1cc(Nc2ncc(F)c(Nc3ccc4c(n3)N(COP(=O)([O-])[O-])C(=O)C(C)(C)O4)n2)cc(OC)c1OC.[Na+].[Na+] [R788 (Fostamatinib) Disodium] : ____
Response: 90

----------
# study-target: recombinant PRL-1 (Homo sapiens, UniProt Q93096)
# Construct: 6xHis (N, cleaved yes); made in house; host or cells: E. coli One Shot BL21 Star
# Sequence (Q93096 1-173): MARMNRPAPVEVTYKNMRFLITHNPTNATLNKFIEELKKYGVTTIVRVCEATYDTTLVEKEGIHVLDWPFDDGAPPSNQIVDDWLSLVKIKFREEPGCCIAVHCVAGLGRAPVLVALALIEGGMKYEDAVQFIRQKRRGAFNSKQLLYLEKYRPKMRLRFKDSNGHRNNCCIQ
# protocol-summary: In vitro phosphatase assay (DiFMUP hydrolysis), PRL-1; further: test concentration or dose not given here
# Format: biochemical
# protocol-conditions: FDA-approved drug screen; compared to DMSO
Structures can show the parent of a compound that is named as a salt.
Reported % Phosphatase Activity (compared to DMSO) PRL-1 values for a set of molecules
The figure you give is taken to be in %; do not add the unit.

Past entries and their recorded results:
c1ccc(CN(CC2=NCCN2)c2ccccc2)cc1 [Antazoline HCl]	91
O=c1ccc2ccccc2o1 [Coumarin]	92
O=C(O)C(=O)O.[NH-][C@@H]1CCCC[C@H]1[NH-].[Pt+2] [Oxaliplatin]	92
C#C[C@]1(O)CC[C@H]2[C@@H]3CCC4=CC(=O)CC[C@@H]4[C@H]3CC[C@@]21C [Norethindrone]	92

Prompt: Reported % Phosphatase Activity (compared to DMSO) PRL-1, molecule O=C(NC(Cc1cc(=O)[nH]c2ccccc12)C(=O)O)c1ccc(Cl)cc1 (centres unmarked) [Rebamipide] : ____
Response: 88
